// provenance: patent US12662524B2

- Substrate: CP C3-convertase (C4b2a) (Homo sapiens (Human)) (UniProt P0C0L4)
Property: CP-DAA IC50 (nM)
# output: bare number, implied unit nM

Input D2D3 (protein) CEVPTRLNSASLKQPYITQNYFPVGTVVEYECRPGYRREPSLSPKLTCLQNLKWSTAVEFCKKKSCPNPGEIRNGQIDVPGGILFGATISFSCNTGYKLFGSTSSFCLISGSSVQWSDPLPECREIY . Output CP-DAA IC50: 10.9
